TEST_SYSTEM: 4-hydroxy-3-methylbut-2-enyl diphosphate reductase (Pseudomonas aeruginosa (strain ATCC 15692 / PAO1 / 1C / PRS 101 / LMG12228))
Sequence (Q9HVM7 whole entry): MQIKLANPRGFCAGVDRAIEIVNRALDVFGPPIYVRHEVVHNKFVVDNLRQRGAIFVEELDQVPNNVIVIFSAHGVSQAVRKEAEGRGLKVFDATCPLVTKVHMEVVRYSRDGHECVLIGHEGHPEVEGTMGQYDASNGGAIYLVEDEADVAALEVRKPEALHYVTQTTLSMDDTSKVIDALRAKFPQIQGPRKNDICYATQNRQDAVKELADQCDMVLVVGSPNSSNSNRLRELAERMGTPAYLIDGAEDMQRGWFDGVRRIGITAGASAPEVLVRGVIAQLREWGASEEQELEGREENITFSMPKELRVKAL
ASSAY_TEXT: In Silico Screening
VALUE_KIND: pKi
Numbers only, as −log10 of the molar value.

The recorded pKi for CCN1CCN2c3ccc(N)cc3CC3(C(=O)NC(=O)NC3=O)C2C1 (stereo unspecified) [IspH inhibitor, 8] is 6.30
